- assay_notes: inhibitors of mutant huntingtin aggregation, primary screen, imaging, exon1htt(103Q)mCFP cells, high-content imaging (AID 483);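 further: compound exposure lasted 3 days before fixation; percent of the per-plate median nuclei count of sample wells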
- assay_setup: exon1htt(103Q)mCFP cell line, aggregate imaging, at 2 µM; measured here: cell count, toxicity
nuclei count listing for selected compounds.
Expressed in %, but write only the number.

compound: CCN(CC)CCn1c(OC)cc(=O)[nH]c1=O
result_number: 108

compound: CCN(CC)CCN1C(=O)C(O)=C(C(=O)c2cccs2)C1c1ccc(C)o1 (stereo unspecified)
result_number: 91.9

compound: COc1ccc(Cl)cc1N1CC(c2nc3ccccc3[nH]2)CC1=O (stereo unspecified)
result_number: 114

compound: CCOc1ccccc1NC(=O)CCSc1nc2n[nH]c(C)c2c(=N)n1-c1ccccc1Cl
result_number: 77.9

For the next question, use this compound.
query: Determine its reported nuclei count: `CCn1c(C)cc(=S)c2ccccc21`
result: 105
